Each recorded value in this set is attributed to the supplement of paper PMC10724198.

- Tested on: Saccharomyces cerevisiae
- assayNotes: protein stability index of tFT-peptide fusion (C-terminal peptide) (PSI (0-1 scale)); higher = more stable (slower turnover)
- particulars: genetic background: das1 deletion; temperature: 30 C
Label True when protein stability index is at or above 0.7; anything below gets False.

| biopolymerSequence | assayTarget | groupLabel |
| --- | --- | --- |
| QQPNQNQNQNSK [FIP1 C-terminal 12 aa] | Saccharomyces cerevisiae | True |
| SKFTGRKRRHRF [BUD23 C-terminal 12 aa] | Saccharomyces cerevisiae | False |
| LLRPPKPPLFCC [YGL123C-A C-terminal 12 aa] | Saccharomyces cerevisiae | False |
| VAAGVFIEHDEL [YOS9 C-terminal 12 aa] | Saccharomyces cerevisiae | True |
| IMPDRFDYENYY [TMS1 C-terminal 12 aa] | Saccharomyces cerevisiae | True |
| VRKDYIALINQY [ADI1 C-terminal 12 aa] | Saccharomyces cerevisiae | False |

====

- System: Saccharomyces cerevisiae
- assayNotes: protein stability index of tFT-peptide fusion in wild type (PSI (0-1 scale)); higher = more stable (slower turnover)
- particulars: genetic background: wild type
// values below are reported protein stability index
propertyMeasured: protein stability index

| biopolymerSequence | propertyMeasured | recordedMeasurement |
| --- | --- | --- |
| RRWRVGLWRGAS | protein stability index | 0.389 |
| KKHKHGQKQKIN | protein stability index | 0.0725 |
| VRGAVGGKRLVG | protein stability index | 0.649 |
| VDGAVGGWRLVG | protein stability index | 0.155 |
| CTSCGYKFRMNN | protein stability index | 0.412 |
| PDYRNHLIKLLN | protein stability index | 0.0727 |
| PDKRKHLIKLLN | protein stability index | 0.171 |
| PELAASFWRVVG | protein stability index | 0.2 |
| RLIQPLPVQFLI | protein stability index | 0.0642 |
| RVTRLDAWYFRI | protein stability index | 0.678 |
| RSLRVLLPLKFR | protein stability index | 0.431 |
| EDKRNHLIKLLN | protein stability index | 0.078 |
| FSMRWDFRYWVN | protein stability index | 0.0502 |
| GKYMCSVGCWFR | protein stability index | 0.406 |
| LVVYLSYVACIN | protein stability index | 0.097 |
| VRGAVGGWRLVGE | protein stability index | 0.612 |
| RSLRVLLSLYFR | protein stability index | 0.452 |
| LKILRQKMNHQNH | protein stability index | 0.655 |
| ARWKVGLWRGAS | protein stability index | 0.32 |
| RSLRVILPLYFR | protein stability index | 0.197 |
| LKILRQEMNHQN | protein stability index | 0.437 |
| LVVYISCVACIN | protein stability index | 0.0144 |
| RSLRVLLRLYFR | protein stability index | 0.391 |
| RLIQPLTVQFLN | protein stability index | 0.065 |
| RSLRVLRPLYFR | protein stability index | 0.257 |
| RSLRVLLPLYFRA | protein stability index | 0.244 |
| AVWRVGLWRGAS | protein stability index | 0.409 |
| AFTLPMCPLLLR | protein stability index | 0.171 |
| SSMRWTFRYWVN | protein stability index | 0.113 |
| RSLRVLLPLYFQ | protein stability index | 0.431 |
| LKILREKMNHQN | protein stability index | 0.183 |
| LVVYLSCVAFIN | protein stability index | 0.0135 |
| RSLRMLLPLYFR | protein stability index | 0.376 |
| KLIQPLPVQFLN | protein stability index | 0.0526 |
| CLVSLPILLPFR | protein stability index | 0.642 |
| VRGAVGGARLVG | protein stability index | 0.618 |
| TRWRVGLWRGAS | protein stability index | 0.394 |
| RVTRLDAIYFRQ | protein stability index | 0.533 |
| LKDLRQKMNHQN | protein stability index | 0.192 |
| GLYMCSVDCWFR | protein stability index | 0.574 |
| RLIFPLPVQFLN | protein stability index | 0.0304 |
| CTSCGKKFRTNN | protein stability index | 0.5 |
| RVTRLMAIYFRI | protein stability index | 0.155 |
| PSLAASFWRVVGP | protein stability index | 0.684 |
| RLIQPLPVQFLP | protein stability index | 0.62 |
| LVVYLSCVACINS | protein stability index | 0.029 |
| LVWYLSCVACIN | protein stability index | 0.0133 |
| RLIAPLPVQFLN | protein stability index | 0.0614 |
| VRGAVIGWRLVG | protein stability index | 0.146 |
| PDKRNHLIKLWN | protein stability index | 0.314 |
| VRGAVGGWRLVQ | protein stability index | 0.24 |
| CTSCGDKFRTNN | protein stability index | 0.48 |
| AILLPMCPLLLR | protein stability index | 0.281 |
| RSLRVLLPLYFI | protein stability index | 0.255 |
| RVTLLDAIYFRI | protein stability index | 0.455 |
| RLIQPLPVWFLN | protein stability index | 0.0563 |
| LKILRQKMNHQS | protein stability index | 0.23 |
| LKILYQKMNHQN | protein stability index | 0.259 |
| LKILRQKMNHNN | protein stability index | 0.239 |
| RPIQPLPVQFLN | protein stability index | 0.0515 |
| FVMRWTFRYWVN | protein stability index | 0.0377 |
| KKHKKGQKQKIA | protein stability index | 0.128 |
| GSLRVLLPLYFR | protein stability index | 0.242 |
| RVTRKDAIYFRI | protein stability index | 0.564 |
| LVVILSCVACIN | protein stability index | 0.0224 |
| CTSMGYKFRTNN | protein stability index | 0.148 |
| DVVYLSCVACIN | protein stability index | 0.0164 |
| PSLAASFWRSVG | protein stability index | 0.168 |
| RVTRGDAIYFRI | protein stability index | 0.553 |
| ARWRVMLWRGAS | protein stability index | 0.305 |
| CTSFGYKFRTNN | protein stability index | 0.127 |
| PSLASSFWRVVG | protein stability index | 0.165 |
| CTPCGYKFRTNN | protein stability index | 0.248 |
| NSLAASFWRVVG | protein stability index | 0.147 |
| LVVYLSCVACLN | protein stability index | 0.0163 |
| RSLRVLLVLYFR | protein stability index | 0.269 |
| ARWRVYLWRGAS | protein stability index | 0.378 |
| CTSCGYNFRTNN | protein stability index | 0.642 |
| RVTRLDAIYFRIW | protein stability index | 0.234 |
| GLYMCSVCCWFR | protein stability index | 0.47 |
| PSLNASFWRVVG | protein stability index | 0.159 |
